Test system: Plasmodium falciparum
ASSAY TEXT: Inhibition of Plasmodium falciparum recombinant SAHH at 1000 uM
The source made the active and inactive calls. The calls are words filed in the database; no cut-off is given here.
ASSAY ENDPOINT: Activity

Please review the following examples before continuing.
{"MOLECULE SMILES": "Nc1nc(N)c2ncn([C@@H]3C[C@@H](OS(N)(=O)=O)[C@@H](O)[C@H]3O)c2n1", "Activity": "inactive"}
{"MOLECULE SMILES": "Nc1ncnc2c1ncn2[C@@H]1C[C@@H](OS(N)(=O)=O)[C@@H](O)[C@H]1O", "Activity": "inactive"}
{"MOLECULE SMILES": "Nc1ncnc2c1ncn2[C@@H]1C[C@@H](OS(=O)(=O)O)[C@@H](O)[C@H]1O", "Activity": "inactive"}
{"MOLECULE SMILES": "Nc1ncnc2c1ncn2[C@@H]1C[C@@H](F)[C@@H](O)[C@H]1O", "Activity": "inactive"}

For the compound `Nc1nc(N)c2ncn([C@@H]3C[C@H](OS(=O)(=O)O)[C@@H](O)[C@H]3O)c2n1` , what Activity is on record?
inactive

For the compound `Nc1ncnc2c1ncn2[C@@H]1C[C@H](OS(N)(=O)=O)[C@@H](O)[C@H]1O` , what Activity is on record?
inactive

For the compound `Nc1ncnc2c1ncn2[C@@H]1C[C@H](OS(=O)(=O)O)[C@@H](O)[C@H]1O` , what Activity is on record?
inactive

For the compound `Nc1nc(N)c2ncn([C@@H]3C[C@H](OS(N)(=O)=O)[C@@H](O)[C@H]3O)c2n1` , what Activity is on record?
inactive

For the compound `Nc1nc(N)c2ncn([C@@H]3C[C@@H](OS(=O)(=O)O)[C@@H](O)[C@H]3O)c2n1` , what Activity is on record?
inactive

====

MEASURED TARGET: Adenosylhomocysteinase (Homo sapiens, UniProt P23526)
ASSAY TEXT: Inhibition of human recombinant SAHH
Sequence (P23526 whole entry): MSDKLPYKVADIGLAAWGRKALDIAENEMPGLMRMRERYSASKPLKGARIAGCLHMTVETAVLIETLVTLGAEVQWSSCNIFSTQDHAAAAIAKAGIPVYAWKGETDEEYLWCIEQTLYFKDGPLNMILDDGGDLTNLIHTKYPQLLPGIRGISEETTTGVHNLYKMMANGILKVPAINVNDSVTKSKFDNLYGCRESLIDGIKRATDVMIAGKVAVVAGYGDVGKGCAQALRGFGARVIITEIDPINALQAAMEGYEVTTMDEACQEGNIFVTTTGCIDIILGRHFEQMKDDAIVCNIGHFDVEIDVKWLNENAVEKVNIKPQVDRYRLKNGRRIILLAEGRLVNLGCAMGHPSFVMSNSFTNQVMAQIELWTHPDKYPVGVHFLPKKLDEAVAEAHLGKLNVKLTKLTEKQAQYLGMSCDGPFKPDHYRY
ASSAY ENDPOINT: IC50 (µM)
Unit µM implied. Number only.

Please review the following examples before continuing.
{"MOLECULE SMILES": "Nc1ncnc2c1ncn2[C@@H]1C[C@H](O)[C@@H](O)[C@H]1O", "MEASURED TARGET": "Adenosylhomocysteinase (Homo sapiens, UniProt P23526)", "MEASUREMENT UNITS": "µM", "IC50": 3.1}
{"MOLECULE SMILES": "[N-]=[N+]=N[C@@H]1C[C@@H](n2cnc3c(N)ncnc32)[C@H](O)[C@@H]1O", "MEASURED TARGET": "Adenosylhomocysteinase (Homo sapiens, UniProt P23526)", "MEASUREMENT UNITS": "µM", "IC50": 163}
{"MOLECULE SMILES": "Nc1ncnc2c1ncn2[C@@H]1C[C@@H](O)[C@@H](O)[C@H]1O", "MEASURED TARGET": "Adenosylhomocysteinase (Homo sapiens, UniProt P23526)", "MEASUREMENT UNITS": "µM", "IC50": 7.6}
{"MOLECULE SMILES": "[N-]=[N+]=N[C@H]1C[C@@H](n2cnc3c(N)ncnc32)[C@H](O)[C@@H]1O", "MEASURED TARGET": "Adenosylhomocysteinase (Homo sapiens, UniProt P23526)", "MEASUREMENT UNITS": "µM", "IC50": 123}

For the compound `Nc1nc(F)nc2c1ncn2[C@@H]1C[C@H](O)[C@@H](O)[C@H]1O` , what IC50 is on record?
13

For the compound `Nc1ncnc2c1ncn2[C@@H]1C[C@H](N)[C@@H](O)[C@H]1O` , what IC50 is on record?
76

====

MEASURED TARGET: Adenosylhomocysteinase (Homo sapiens)
ASSAY TEXT: Inhibition of human recombinant SAHH at 1000 uM
Sequence (P23526 2-432 limits assumed): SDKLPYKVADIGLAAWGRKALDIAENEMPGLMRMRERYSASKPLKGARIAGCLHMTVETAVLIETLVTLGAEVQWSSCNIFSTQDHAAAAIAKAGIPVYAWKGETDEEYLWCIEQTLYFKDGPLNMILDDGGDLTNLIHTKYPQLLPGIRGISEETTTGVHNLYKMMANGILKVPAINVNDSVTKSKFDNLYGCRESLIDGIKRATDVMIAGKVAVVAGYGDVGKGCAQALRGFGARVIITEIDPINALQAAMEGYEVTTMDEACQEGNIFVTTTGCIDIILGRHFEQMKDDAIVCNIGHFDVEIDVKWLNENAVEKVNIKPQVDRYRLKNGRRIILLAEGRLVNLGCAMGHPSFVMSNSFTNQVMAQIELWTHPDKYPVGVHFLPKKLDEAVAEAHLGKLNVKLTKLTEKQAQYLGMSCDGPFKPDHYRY
The source made the active and inactive calls. The calls are words filed in the database; no cut-off is given here.
ASSAY ENDPOINT: Activity

Please review the following examples before continuing.
{"MOLECULE SMILES": "Nc1ncnc2c1ncn2[C@@H]1C[C@@H](OS(=O)(=O)O)[C@@H](O)[C@H]1O", "Activity": "inactive"}
{"MOLECULE SMILES": "Nc1ncnc2c1ncn2[C@@H]1C[C@@H](OS(N)(=O)=O)[C@@H](O)[C@H]1O", "Activity": "inactive"}
{"MOLECULE SMILES": "Nc1nc(N)c2ncn([C@@H]3C[C@@H](OS(N)(=O)=O)[C@@H](O)[C@H]3O)c2n1", "Activity": "inactive"}
{"MOLECULE SMILES": "Nc1nc(N)c2ncn([C@@H]3C[C@@H](OS(=O)(=O)O)[C@@H](O)[C@H]3O)c2n1", "Activity": "inactive"}
{"MOLECULE SMILES": "Nc1nc(N)c2ncn([C@@H]3C[C@H](OS(=O)(=O)O)[C@@H](O)[C@H]3O)c2n1", "Activity": "inactive"}

For the compound `Nc1nc(N)c2ncn([C@@H]3C[C@H](OS(N)(=O)=O)[C@@H](O)[C@H]3O)c2n1` , what Activity is on record?
inactive

For the compound `Nc1ncnc2c1ncn2[C@@H]1C[C@H](OS(=O)(=O)O)[C@@H](O)[C@H]1O` , what Activity is on record?
inactive

For the compound `Nc1ncnc2c1ncn2[C@@H]1C[C@H](F)[C@@H](O)[C@H]1O` , what Activity is on record?
inactive

For the compound `Nc1ncnc2c1ncn2[C@@H]1C[C@H](OS(N)(=O)=O)[C@@H](O)[C@H]1O` , what Activity is on record?
inactive

For the compound `Nc1ncnc2c1ncn2[C@@H]1C[C@@H](F)[C@@H](O)[C@H]1O` , what Activity is on record?
inactive

====

ASSAY TEXT: Inhibition of Plasmodium falciparum recombinant SAHH
ASSAY ENDPOINT: log10 IC50 (log10 of the value in µM)
Heads up: the numbers are on a log10 scale; they represent IC50 in µM.

Please review the following examples before continuing.
{"MOLECULE": "[N-]=[N+]=N[C@@H]1C[C@@H](n2cnc3c(N)ncnc32)[C@H](O)[C@@H]1O", "NUMERIC RESULT": 1.95}
{"MOLECULE": "Nc1nc(F)nc2c1ncn2[C@@H]1C[C@H](O)[C@@H](O)[C@H]1O", "NUMERIC RESULT": 1.80}
{"MOLECULE": "Nc1ncnc2c1ncn2[C@@H]1C[C@H](O)[C@@H](O)[C@H]1O [NORARISTEROMYCIN]", "NUMERIC RESULT": 0.04}
{"MOLECULE": "[N-]=[N+]=N[C@H]1C[C@@H](n2cnc3c(N)ncnc32)[C@H](O)[C@@H]1O", "NUMERIC RESULT": 2.07}
{"MOLECULE": "Nc1ncnc2c1ncn2[C@@H]1C[C@@H](O)[C@@H](O)[C@H]1O", "NUMERIC RESULT": 1.90}
{"MOLECULE": "Nc1ncnc2c1ncn2[C@@H]1C[C@H](F)[C@@H](O)[C@H]1O", "NUMERIC RESULT": 2.30}

Next molecule, please.
For the molecule `Nc1ncnc2c1ncn2[C@@H]1C[C@H](N)[C@@H](O)[C@H]1O` , what log10 IC50 is on record?
2.10

Origin of measurements: ChEMBL document CHEMBL1144794
